Experiment: Drug metabolism in human plasma administered as iv bolus dose after 30 mins
Assay type: ADME, organism-based
Conditions: read-out: Drug metabolism
VALUE KIND: metabolised at 0.5 h (%)
Expressed in %, but write only the number.

Qu. // query metabolised at 0.5 h value for entry `CC(C)C[C@H](NC(=O)CNC(=O)c1cc(Cl)ccc1Cl)B(O)O`
Ans. 90

###

Tested on: HL-60
Experiment: Antiproliferative activity against human HL60 cells after 72 hrs by SRB assay
Format: functional, cell-based
Settings: HL-60, 72 h
VALUE KIND: IC50 (µM)
Expressed in µM, but write only the number.

Consider the following illustrative entries.
CC(C)C[C@H](NC(=O)[C@H](Cc1ccccc1)NC(=O)c1cnccn1)B(O)O
0.0032
CC(C)C[C@H](NC(=O)[C@H](Cc1ccccc1)NC1=CC(=O)c2ccccc2C1=O)B(O)O
1.11

Qu. // query IC50 value for entry `CC(C)C[C@H](NC(=O)CNC1=CC(=O)c2ccccc2C1=O)B(O)O`
Ans. 3.59
